These entries and their values trace back to ChEMBL document CHEMBL1126145.

For each entry below, report its Kd value.
Molecular target: Muscarinic acetylcholine receptor
Test: Determination of dissociation constant from antimuscarinic activity on isolated guinea pig ileum.
Type: tissue-based, Cavia porcellus
The reply should contain only the number, in µM.

Query :: GET /values?readout=Kd&item= `CN(CC#CCN1CCCC1)C(=O)Cc1ccccc1`
Result :: 20.5

Query :: Quick one: Kd for O=C1CCC(=O)N1C(C#CCN1CCCC1)c1ccccc1 (stereo not drawn) ?
Result :: 0.1

Query :: I would be grateful if you could share the reported Kd for `CC(=O)N(CC#CCN1CCCC1)Cc1ccccc1` .
Result :: 5.89
